The compounds listed here are annotated with their melting point.

Study these solved cases before continuing.
>>> val("CCCC(=O)Nc1cccc2c1C(=O)N(C1CCC(=O)NC1=O)C2=O (stereo unspecified)")
"171 to 173 °C"
>>> val("Cc1ccc(S(=O)(=O)OCCC2COc3cc(Cl)c(Cl)cc3O2)cc1 (stereo unspecified)")
"135 to 138 °C"
>>> val("CC(C)NC[C@H](O)COc1ccc(OCc2ccccc2)cc1")
"93 to 95 °C"

Qu. Give its melting point value. Item: COC1=NS(=O)(=O)N(C)C(OCCCCc2ccccc2)=N1
Ans. 74 to 78 °C

Qu. Give its melting point value. Item: C=CCC(C#N)(c1ccc(F)cc1)c1ccccc1F (stereo unspecified)
Ans. 215 to 219 °C

Qu. Give its melting point value. Item: C[C@H]1Cn2c(=O)[nH]c3cccc(c32)CN1
Ans. 190 °C

Qu. Give its melting point value. Item: COc1ccc2c(c1)C(=C1CCN(Cc3ccccc3)CC1)C(=O)N2
Ans. 152 °C

* * *

result_type: melting point

Study these solved cases before continuing.
>>> val("Cc1cccc2c1C(=O)N(C)Cc1c(C#CC(C)(C)O)ncn1-2")
"165 to 167 °C"
>>> val("Cc1cc(C)c(O)c(CC(C)(C)CO)c1")
"117 °C"
>>> val("CSc1ccc(-c2n[nH]c(=S)cc2-c2ccc(F)cc2)cc1")
"219 °C"
>>> val("Cc1nc(C(O)(Cn2cncn2)c2ccc(F)cc2)cs1 (configuration not stated)")
"120 °C"
>>> val("CCC(CC)Nc1c([N+](=O)[O-])cc(C#N)c(COC)c1[N+](=O)[O-]")
"46 to 49 °C"
>>> val("SCC1SC(CS)SC(CS)S1 (configuration not stated)")
"42 to 46 °C"
>>> val("O=C(NCCO[N+](=O)[O-])c1cnc(C(F)(F)F)s1")
"76 to 78 °C"
>>> val("CCCCCCCCCCCCCCCCOC(=O)C=CC(=O)NC(N)=O")
"106 °C"
>>> val("C[C@@H]1Cc2ccccc2O[C@H]1c1ccccc1 (relative stereo)")
"77 to 78 °C"
>>> val("O=S1(=O)CCC=C(O)c2cc(Cl)ccc21")
"166 to 168 °C"

Qu. Give its melting point value. Item: O=C(Nc1ccc(N(CCCl)CCCl)cc1)Nc1cccc([N+](=O)[O-])c1
Ans. 246 to 247 °C

Qu. Give its melting point value. Item: CN(c1ccccc1)c1nc(N(C)c2ccccc2)c2sccc2n1
Ans. 120 to 122 °C

Qu. Give its melting point value. Item: CN(c1ccccc1)c1nc(Cl)nc(N2CCOCC2)n1
Ans. 93.5 to 95.5 °C

Qu. Give its melting point value. Item: O=C(O)Cc1cccc([N+](=O)[O-])c1[N+](=O)[O-]
Ans. 209 to 215 °C

Qu. Give its melting point value. Item: COc1ccc(N2CCN(c3ccc(-n4c(C)n[nH]c4=O)cn3)CC2)cc1
Ans. 251 to 252 °C

Qu. Give its melting point value. Item: O=C(CNC(=O)[C@@H]1CCCN1C(=O)O)NCc1ccccc1
Ans. 112 to 115 °C

Qu. Give its melting point value. Item: CSC1(C)C(=O)Nc2ccc(C3=NNC(=O)SC3C)cc21 (configuration not stated)
Ans. 250 °C

Qu. Give its melting point value. Item: COc1ccc(-c2ccncc2)cc1-c1ccc(F)c(Cl)c1
Ans. 115 °C

Qu. Give its melting point value. Item: CCCCCCOc1ccc(-c2ncc(-c3ccc(OCc4ccccc4)c(F)c3F)cn2)cn1
Ans. 115 °C

Qu. Give its melting point value. Item: N=C(Nc1cccc([N+](=O)[O-])c1)N1CCCC1
Ans. 117 to 118 °C

Qu. Give its melting point value. Item: COc1ccc(C(=O)Nc2ccc(Cl)c(Cl)c2)cc1N
Ans. 179 to 182 °C

Qu. Give its melting point value. Item: O=C(CC(=O)c1ccc(Br)cc1)c1ccc(Br)cc1
Ans. 193 to 195 °C
